assay: Solubility in water or ethanol (statements in the description); conditions: water

compound: Cn1c(=O)c2[nH]cnc2n(C)c1=O [theophylline]
result-unit: mg/mL
solubility: 80

###

assay: Sucrose as supplementary solubilizing agent, crystallization after 3 days (Example 5); details: water

molecule: Cn1c(=O)c2[nH]cnc2n(C)c1=O
solubility at 72 h: ≥ 44 mg/mL
